Molecular target: OpuAC (Lactococcus lactis, UniProt Q9RQ05)
Sequence (Q9RQ05 320-573): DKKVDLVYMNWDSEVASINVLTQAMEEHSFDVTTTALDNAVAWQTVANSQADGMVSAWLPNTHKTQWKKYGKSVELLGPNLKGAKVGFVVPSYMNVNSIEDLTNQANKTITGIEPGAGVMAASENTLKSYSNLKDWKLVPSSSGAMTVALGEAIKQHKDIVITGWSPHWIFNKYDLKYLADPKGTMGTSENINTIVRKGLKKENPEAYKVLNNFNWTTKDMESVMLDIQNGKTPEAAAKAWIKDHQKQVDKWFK
Experiment: Competitive inhibition of glycine betaine-induced fluorescence changes
Format: binding
Details: inhibition of glycine betaine binding; ∼0.5 µM OpuAC; listed as proline betaine
pKi: −log10 of the molar value.
readoutKind: pKi

Give the measured pKi of `C[N+]1(C)CCC[C@H]1C(=O)[O-]` .
~4.39

###

molecular target: purified OpuA (Lactococcus lactis subsp. lactis); assay: Glycine betaine binding to purified DDM-solubilized OpuA, intrinsic protein fluorescence; conditions: 12.5 mM KPi, pH7.0
readoutKind: pKd
Just so you know, pKd here is -log10 of the concentration in molar units; reply with that number alone.

Lookup: pKd / purified OpuA (Lactococcus lactis subsp. lactis) / C[N+](C)(C)CC(=O)[O-] [glycine betaine]
5.22

###

biological target: purified OpuA (Lactococcus lactis subsp. lactis, UniProt Q7DAU8); test: Glycine betaine binding to purified DDM-solubilized OpuA, intrinsic protein fluorescence; details: 250 mM KPi, pH7.0
Sequence (Q7DAU8 1-573): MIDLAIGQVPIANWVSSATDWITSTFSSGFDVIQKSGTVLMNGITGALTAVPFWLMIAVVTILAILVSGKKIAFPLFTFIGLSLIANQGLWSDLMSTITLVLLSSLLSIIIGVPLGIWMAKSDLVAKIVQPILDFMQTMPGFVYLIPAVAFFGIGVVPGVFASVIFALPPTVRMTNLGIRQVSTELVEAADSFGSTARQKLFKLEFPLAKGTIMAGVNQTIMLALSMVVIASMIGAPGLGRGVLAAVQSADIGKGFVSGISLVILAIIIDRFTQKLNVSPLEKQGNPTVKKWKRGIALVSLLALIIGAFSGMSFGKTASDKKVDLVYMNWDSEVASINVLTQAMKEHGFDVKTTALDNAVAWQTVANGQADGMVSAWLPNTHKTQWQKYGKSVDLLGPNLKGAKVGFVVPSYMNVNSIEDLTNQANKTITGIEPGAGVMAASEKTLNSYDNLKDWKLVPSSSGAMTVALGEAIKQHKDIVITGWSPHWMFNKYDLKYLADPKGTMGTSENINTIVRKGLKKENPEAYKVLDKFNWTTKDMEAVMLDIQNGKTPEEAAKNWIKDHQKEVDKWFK
Sequence (Q9KIF7 whole entry partner): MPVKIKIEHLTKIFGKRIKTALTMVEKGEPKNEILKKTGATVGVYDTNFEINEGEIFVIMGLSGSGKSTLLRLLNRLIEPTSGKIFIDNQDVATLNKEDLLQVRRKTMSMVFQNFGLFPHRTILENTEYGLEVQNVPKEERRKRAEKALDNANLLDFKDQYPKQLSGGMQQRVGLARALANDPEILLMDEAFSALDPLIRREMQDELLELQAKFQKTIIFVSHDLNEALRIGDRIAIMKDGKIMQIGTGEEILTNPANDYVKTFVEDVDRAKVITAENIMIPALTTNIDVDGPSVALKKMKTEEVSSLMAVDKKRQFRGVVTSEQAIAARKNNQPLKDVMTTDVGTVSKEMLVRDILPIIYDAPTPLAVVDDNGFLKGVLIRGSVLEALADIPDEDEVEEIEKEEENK
readoutKind: Kd (µM)
Record the value in µM, omitting the unit from your answer.

So what does the record say about Kd for `C[N+](C)(C)CC(=O)[O-]` ?
5.2

###

target: purified OpuA (Lactococcus lactis subsp. lactis); assay: Glycine betaine binding to purified DDM-solubilized OpuA, intrinsic protein fluorescence; conditions: 50 mM KPi, pH7.0
readoutKind: pKd
// field semantics: pKd = negative decimal log of concentration (mol/L)

Entry C[N+](C)(C)CC(=O)[O-] [glycine betaine] has what pKd?
5.22

###

target: OpuAC (Lactococcus lactis, UniProt Q9RQ05); test: Competitive inhibition of glycine betaine-induced fluorescence changes; format: binding
readoutKind: pKi
For clarity, pKi is expressed as the negative log10 of concentration in mol/L.

Item under review: C[N+](C)(C)CC(O)CC(=O)[O-] (stereo not shown) [Carnitine] . Reported pKi?
1.19

###

target: purified OpuA (Lactococcus lactis subsp. lactis); assay: Filter-based assay with radio-labeled glycine betaine (ammonium sulfate precipitation); assay type: binding; conditions: averaged from duplicate measurements for all salt concentrations (10, 50, 250 mM KPi); 30°C
readoutKind: Kd (µM)
Field: numeric (µM). Do not append units.

What measured Kd goes with `C[N+](C)(C)CC(=O)[O-]` ?
7.3

This collection of values is drawn from paper PMC2861598.
